# study.target: Cad1 (UniProt P24813)
# Sequence: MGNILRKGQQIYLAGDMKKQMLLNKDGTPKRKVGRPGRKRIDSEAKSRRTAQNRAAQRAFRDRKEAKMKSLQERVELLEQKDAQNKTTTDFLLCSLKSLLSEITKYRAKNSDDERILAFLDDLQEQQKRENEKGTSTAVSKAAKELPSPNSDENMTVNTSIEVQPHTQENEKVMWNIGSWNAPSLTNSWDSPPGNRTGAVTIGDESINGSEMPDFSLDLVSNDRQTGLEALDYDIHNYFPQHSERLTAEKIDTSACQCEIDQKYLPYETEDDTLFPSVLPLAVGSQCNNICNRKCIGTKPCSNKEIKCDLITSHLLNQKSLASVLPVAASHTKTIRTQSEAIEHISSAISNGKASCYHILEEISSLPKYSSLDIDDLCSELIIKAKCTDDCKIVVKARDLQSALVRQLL
# assay.method.text: PBM E-score (8-mer binding enrichment) (E-score (-0.5 to 0.5)); higher = stronger / more preferred TF binding
# measurement.conditions: protein concentration: 100 nM; construct: GST-full length
In all, about 33,000 sequences were measured (“E-score (-0.5 to 0.5)”: median about -0.0014, highest 2% from about 0.25 on). The entries come from a sample that favours the highest values as a whole.
Parameter: PBM E-score. Scope: all listed entries.
test.readout: PBM E-score

INSERT INTO assay_data (sequence_text, test_readout, observed) VALUES
  ('AACTAAAG', 'PBM E-score', 0.2),
  ('AGATGAAA', 'PBM E-score', 0.02),
  ('CAATAATA', 'PBM E-score', 0.208),
  ('TATAATCA', 'PBM E-score', 0.31),
  ('GCCGCGGA', 'PBM E-score', -0.00234),
  ('CATGCCAG', 'PBM E-score', -0.0523),
  ('CCCGCGCA', 'PBM E-score', 0.106),
  ('AATAATAC', 'PBM E-score', 0.205),
  ('GACTAACA', 'PBM E-score', 0.218),
  ('TCGAAACA', 'PBM E-score', 0.251),
  ('GACATGTA', 'PBM E-score', 0.0721),
  ('CACGTCTG', 'PBM E-score', 0.134),
  ('CCCGCGCG', 'PBM E-score', 0.298),
  ('TCTAATAA', 'PBM E-score', 0.0758),
  ('CCAATTTC', 'PBM E-score', 0.105),
  ('TACATGTA', 'PBM E-score', 0.27),
  ('ACCGCCTG', 'PBM E-score', -0.142),
  ('CTTAATAC', 'PBM E-score', -0.0147),
  ('GAGAGAAA', 'PBM E-score', 0.14),
  ('AGCTGAAT', 'PBM E-score', -0.00032),
  ('ACCGCCGA', 'PBM E-score', -0.0944),
  ('GAATAATA', 'PBM E-score', 0.221),
  ('GACTCAAA', 'PBM E-score', -0.0319),
  ('AATAATAA', 'PBM E-score', 0.305),
  ('GCTTTGAA', 'PBM E-score', 0.108),
  ('TAATAATA', 'PBM E-score', 0.29),
  ('CAAGATTG', 'PBM E-score', -0.0156),
  ('TCCTCCCA', 'PBM E-score', -0.144),
  ('GATCCGTA', 'PBM E-score', -0.0959),
  ('CCCGCGGC', 'PBM E-score', 0.0319);
